- METHOD_SUMMARY: In vitro-in vivo extrapolation of rat intestinal unbound intrinsic clearance (CL int,u,gut)
- Format: in vitro ADME
- CONDITION_PARAMETERS: pool 1, pool specific scaling factors; threshold 0.01 l/h
- Excerpt: The CL int,u values were scaled to give CL int,u,gut using scaling factors for the corresponding microsomal pool (Eq. (5)). The use of scalars from the mean of both pools was also investigated, and was also used for scaling of commercial microsome CL int,u data. (5) CLint,u,G=CLuint⋅MPPGI⋅Intestine Segment Weight
This listing pairs compounds with measured CL int,u,gut, Pool 1 Mean.
Report only the number, with the unit L/h understood.

Ask | Which measured CL int,u,gut, Pool 1 Mean value corresponds to Cc1ncc2n1-c1ccc(Cl)cc1C(c1ccccc1F)=NC2 [Midazolam] ?
Reply | 4.13

Ask | Which measured CL int,u,gut, Pool 1 Mean value corresponds to CCC(C)(C)C(=O)O[C@H]1C[C@@H](C)C=C2C=C[C@H](C)[C@H](CC[C@@H]3C[C@@H](O)CC(=O)O3)[C@H]21 [Simvastatin] ?
Reply | 1.08

Ask | Which measured CL int,u,gut, Pool 1 Mean value corresponds to COc1ccc2[nH]c([S+]([O-])Cc3ncc(C)c(OC)c3C)nc2c1 (stereo not drawn) [Omeprazole] ?
Reply | 0.01

New cases:
Ask | Which measured CL int,u,gut, Pool 1 Mean value corresponds to C=CC[C@@H]1/C=C(\C)C[C@H](C)C[C@H](OC)[C@H]2O[C@@](O)(C(=O)C(=O)N3CCCC[C@H]3C(=O)O[C@H](/C(C)=C/[C@@H]3CC[C@@H](O)[C@H](OC)C3)[C@H](C)[C@@H](O)CC1=O)[C@H](C)C[C@@H]2OC [Tacrolimus] ?
Reply | 37.77

Ask | Which measured CL int,u,gut, Pool 1 Mean value corresponds to CC(C)NCC(O)COc1ccc(COCCOC(C)C)cc1 (stereo not drawn) [Bisporolol] ?
Reply | 0.01

Ask | Which measured CL int,u,gut, Pool 1 Mean value corresponds to CN(C)CCC=C1c2ccccc2CCc2ccccc21 [Amitriptyline] ?
Reply | 0.01

----------
- METHOD_SUMMARY: Substrate depletion in commercial Han Wistar rat intestinal microsomes, combined or individual CYP and UGT cofactors
- CONDITION_PARAMETERS: male, Han Wistar, rat, microsomes, pH 7.4, CL int,u, Commercial Han Wistar pool, UGT cofactors, 1 mg/ml, 1 μM compound, UGT cofactors only
- Procedure: Microsomes prepared previously via the optimized method (preparation method 8) were combined to form pool 1 (n = 9 rats). A second set of three preparations was combined to form pool 2 (n = 9 rats). Intestinal microsomes were also prepared from intestinal tissue flash‐frozen in tubes on arrival in the laboratory and kept at −80°C until thawing on ice on the morning of preparation, (n = 3 occasions of n = 3 samples). […]
MEASURE: microsomal CLint at 1 μM (µL/min/mg)
Report only the number, with the unit µL/min/mg understood.

Ask | Which measured microsomal CLint at 1 μM value corresponds to Cc1ncc2n1-c1ccc(Cl)cc1C(c1ccccc1F)=NC2 ?
Reply | 2.8

----------
- METHOD_SUMMARY: In vitro-in vivo extrapolation of rat intestinal unbound intrinsic clearance (CL int,u,gut)
- Assay type: in vitro ADME
- CONDITION_PARAMETERS: pool 2, pool specific scaling factors; threshold 0.01 l/h
Tick Condition met if CL int,u,gut, Pool 2 Mean is 7 L/h or greater. Tick Condition not met if CL int,u,gut, Pool 2 Mean is less than 7 L/h.

Ask | Say whether CCC(C)(C)C(=O)O[C@H]1C[C@@H](C)C=C2C=C[C@H](C)[C@H](CC[C@@H]3C[C@@H](O)CC(=O)O3)[C@H]21 [Simvastatin] shows CL int,u,gut, Pool 2 Mean of 7 L/h or more.
Reply | Condition not met

New cases:
Ask | Say whether CC(C)NCC(O)COc1ccc(COCCOC(C)C)cc1 (centres unmarked) [Bisporolol] shows CL int,u,gut, Pool 2 Mean of 7 L/h or more.
Reply | Condition not met

Ask | Say whether Cc1ncc2n1-c1ccc(Cl)cc1C(c1ccccc1F)=NC2 [Midazolam] shows CL int,u,gut, Pool 2 Mean of 7 L/h or more.
Reply | Condition met

Ask | Say whether C=CC[C@@H]1/C=C(\C)C[C@H](C)C[C@H](OC)[C@H]2O[C@@](O)(C(=O)C(=O)N3CCCC[C@H]3C(=O)O[C@H](/C(C)=C/[C@@H]3CC[C@@H](O)[C@H](OC)C3)[C@H](C)[C@@H](O)CC1=O)[C@H](C)C[C@@H]2OC [Tacrolimus] shows CL int,u,gut, Pool 2 Mean of 7 L/h or more.
Reply | Condition met

Ask | Say whether COc1ccc2[nH]c([S+]([O-])Cc3ncc(C)c(OC)c3C)nc2c1 (centres unmarked) [Omeprazole] shows CL int,u,gut, Pool 2 Mean of 7 L/h or more.
Reply | Condition not met
